- assayTarget: ROCK2 (Homo sapiens (Human), UniProt O75116);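 further: rho kinase enzyme reaction halted with EDTA, phospho- and non-phospho peptide separated for read-out, kinase activity inhibition derived across a dose-response series, DMSO under 2%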
- Sequence (O75116 whole entry, species assumed): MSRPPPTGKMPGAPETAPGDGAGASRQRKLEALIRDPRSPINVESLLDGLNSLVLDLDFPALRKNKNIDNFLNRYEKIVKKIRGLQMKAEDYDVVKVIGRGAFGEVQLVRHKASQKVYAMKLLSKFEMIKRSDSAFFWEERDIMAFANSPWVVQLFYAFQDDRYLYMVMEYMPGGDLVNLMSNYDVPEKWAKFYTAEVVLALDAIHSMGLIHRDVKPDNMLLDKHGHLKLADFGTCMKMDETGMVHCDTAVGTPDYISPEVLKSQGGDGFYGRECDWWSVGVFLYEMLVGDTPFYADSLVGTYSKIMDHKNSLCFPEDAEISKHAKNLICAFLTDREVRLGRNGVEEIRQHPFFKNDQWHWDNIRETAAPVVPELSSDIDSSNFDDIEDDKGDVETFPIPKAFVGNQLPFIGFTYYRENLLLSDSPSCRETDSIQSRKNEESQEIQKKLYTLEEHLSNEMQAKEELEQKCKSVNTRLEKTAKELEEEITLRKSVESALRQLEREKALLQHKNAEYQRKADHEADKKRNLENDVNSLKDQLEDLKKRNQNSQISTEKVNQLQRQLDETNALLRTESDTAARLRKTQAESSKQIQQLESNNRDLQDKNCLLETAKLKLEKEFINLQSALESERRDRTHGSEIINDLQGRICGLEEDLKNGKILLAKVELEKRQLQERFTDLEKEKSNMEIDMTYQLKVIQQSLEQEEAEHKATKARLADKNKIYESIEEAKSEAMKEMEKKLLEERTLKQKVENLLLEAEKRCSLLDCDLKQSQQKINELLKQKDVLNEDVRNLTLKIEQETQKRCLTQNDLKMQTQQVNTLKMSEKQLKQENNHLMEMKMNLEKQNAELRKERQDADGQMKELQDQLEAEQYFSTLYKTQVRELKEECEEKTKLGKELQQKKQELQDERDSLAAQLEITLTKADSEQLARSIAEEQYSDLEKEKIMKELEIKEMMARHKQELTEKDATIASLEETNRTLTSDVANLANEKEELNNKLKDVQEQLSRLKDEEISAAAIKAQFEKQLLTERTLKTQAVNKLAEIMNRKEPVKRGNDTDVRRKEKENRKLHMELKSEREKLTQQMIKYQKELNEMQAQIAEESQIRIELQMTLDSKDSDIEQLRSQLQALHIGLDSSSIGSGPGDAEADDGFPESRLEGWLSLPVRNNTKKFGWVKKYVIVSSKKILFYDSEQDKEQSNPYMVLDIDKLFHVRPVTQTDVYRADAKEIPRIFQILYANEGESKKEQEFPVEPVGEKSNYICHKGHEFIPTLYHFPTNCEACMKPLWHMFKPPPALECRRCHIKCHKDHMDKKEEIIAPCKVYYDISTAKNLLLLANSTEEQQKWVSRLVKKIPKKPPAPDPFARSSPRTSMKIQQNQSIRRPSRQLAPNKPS
- assayDetails: biochemical
pIC50: −log10 of the molar value.
Catalogue of pIC50 readings, one per entry.

molecule	pIC50
CCc1cc(N2CCC(Nc3cccc(OCC4CC4)c3)C2=O)ccc1-c1cn[nH]c1 (single isomer, unassigned) [Example 247]	7.00 to 8.00
COc1nc(N2CCC(N3CCS(=O)(=O)CC3)C2=O)ccc1-c1cn[nH]c1 (racemic)	7.00 to 8.00
COc1nc(N2CCC(Nc3ccccc3F)C2=O)ccc1-c1cn[nH]c1 (racemic)	> 8.00
COc1cc(F)cc(NC2CCN(c3ccc(-c4cn[nH]c4)c(C#N)c3)C2=O)c1 (single isomer, unassigned) [Example 375]	7.00 to 8.00
COc1cc(NC2CCN(c3ccc(-c4cn[nH]c4)cc3)C2=O)ccc1F (stereo not shown) [Example 4]	> 8.00
CCc1cc(N2CCC(Nc3cccc(OC)c3)C2=O)ccc1-c1cn[nH]c1 (single isomer, unassigned) [Example 243]	7.00 to 8.00

Okay, next one:
query: Could you tell me which pIC50 is on file for COc1cc(N2CCC(Nc3cccc(OC(F)F)c3)C2=O)ccc1-c1cn[nH]c1 (stereo not shown) [Example 69] ?
result: 7.00 to 8.00
